- Tested on: MS2 coat protein
- Assay Remarks: apparent KD of MS2 coat protein; designed switch direction (-1 OFF switch, 1 ON switch): -1; higher = weaker reporter binding
- Experimental Setup: Eterna round: R95; input ligand: FMN 200 uM
Reported Property: apparent KD of MS2 coat protein (µM)
Numeric answer only, unit µM assumed.

Worked examples, 2 sequences total:
Primary Sequence	Unit	apparent KD of MS2 coat protein
AGUACUAACACGCUUGUGUUAGUACAAUAAGCUUGUGAAACAUGAGGAUCACCCAUGUCCUCAUAAGCUCGUCUUAU [salish99_TOv2_r3_072] (puzzle: Sensor v3, turn-off variant 2)	µM	0.017
AAGUACCGUCACGAUAGUGAUGGUACAACAAGUAGUGAAACAUGAGGAUCACCCAUGUCCUCAGUUGCUCGUCUUAU [Sensor 3 - 86] (puzzle: Sensor v3, turn-off variant 2)	µM	0.283

QUERY: Which apparent KD of MS2 coat protein value is on record for UGUACGAUGCGUGCUGACAUGCGUCGUGCAGCAGGUGAUACAUGAGGAUCACCCAUGUCCUCAUUUGCUCGUCUUGU [SL-sv3-2.11 JL mod] (puzzle: Sensor v3, turn-off variant 2) ?
RESULT: 0.0825

----------
apparent KD of MS2 coat protein for assorted sequences
- System: MS2 coat protein
- Assay Remarks: apparent KD of MS2 coat protein; designed switch direction (-1 OFF switch, 1 ON switch): -1; higher = weaker reporter binding
- Experimental Setup: Eterna round: R95; input ligand: FMN 200 uM
Numeric answer only, unit µM assumed.

Worked examples, 4 sequences total:
Primary Sequence	apparent KD of MS2 coat protein [µM]
AGUAACCGUCACGAAAGUGAUGGUUACGCAAGCAAAUGUACAUGAGGAUCACCCAUGUCCUCAAUUGCUCGUCUUAU [Sensor 3 - 51] (puzzle: Sensor v3, turn-off variant 2)	0.102
AAAAGAAGUGUUAGGAUAUGUGGAAGUAGAAAGACACAGAAGGAACAUGAGGAUCACCCAUGUGGCCUAAGAAC [Bibire] (puzzle: Brourd's mod of Exclusion 4)	0.0154
CGGUACUGAGGAUAUACAUGAGGAUCACCCAUGUGUACCAGCUAGCGUACUGGCAUUAGUAGAAGGCGGUGCUG [JL-ex3-3.19 Brourd mod] (puzzle: Exclusion 3)	0.0157
CAUUAAACGGAGGAUAUCCUAUAUAUAAUAAUAGGAGAAGGUCGUACAUGAGGAUCACCCAUGUGUGGACAUGG [something] (puzzle: Exclusion 6)	0.107

Moving on to the next sequence.
QUERY: Which apparent KD of MS2 coat protein value is on record for GGGAAGUGAGGAUAUAUGAGAGAGGCUGGACCGGAUGAGAAGUAGAAGGCACAUGAGGAUCACCCAUGUAGGGA [JR_Exclu4_Sub026] (puzzle: Exclusion 4) ?
RESULT: 0.13

----------
apparent KD of MS2 coat protein for assorted sequences
- Tested on: MS2 coat protein
- Assay Remarks: apparent KD of MS2 coat protein; higher = weaker reporter binding
- Experimental Setup: Eterna round: R107; input ligand: theophylline 20 uM
Numeric answer only, unit nM assumed.

Primary Sequence	Target Or Test System	apparent KD of MS2 coat protein [nM]
CGUAUCGUAACUGAUACCAGUGUACUGACAUGAGGAUCACCCAUGUUGGGUUUUGUUGUACACCCUUGGCAGCAGAAUCGAUACG [AstrosExyTheB#6]	MS2 coat protein	68.6
CUCUCAUGAACAUGAGGAUCACCCAUGUAACGAGGACCGGUACGGCCGCCACUCGAACGUGGAUACCAAUCGAGUGGGUGAGAGA [Tryp A Ex t5]	MS2 coat protein	25.2
ACAUGAGGAUCACCCAUGUGUGUAAAUCCUCGAGGACCGGUACGGCCGCCACUCGAACGAGUGUAAGAUGAAUGUUACAUUCAUC [SS Trp A s2]	MS2 coat protein	134
UUUACAUGAGGAUCACCCAUGUGCCAUGAUACCAGACAUGAAAAUGUCCCUUGGCAGCAUGAGUGAAGCGUCGGGAAACCGACGC [Kninicky]	MS2 coat protein	229
ACAUGAGGAUCACCCAUGUCAUGAGGUUCACGAGGACCGGUACGGCCGCCACUCGACAUGAGGGUCACCCGUGAAGGGAACACCC [xdmullin]	MS2 coat protein	29.8

Moving on to the next sequence.
QUERY: Which apparent KD of MS2 coat protein value is on record for CGAGUAAGAACAAUCGAAUAACGGUUUUCGCGAGGACCGGUACGGCCGCCACUCGUGUGAUAUAACACAUGAGGAUCACCCAUGU [3'end-1] ?
RESULT: 37.6

Measured values drawn from the supplement of paper PMC9170038 for this set.
